test system: HCT-116 cells; test: Inhibition of cell growth (MTT tetrazolium salt assay); format: cell-based; conditions: Homo sapiens, read-out: HCT116 IC90
Result type: IC90

Below: 2 compounds and their reported IC90.
Cc1ccc(CNS(=O)(=O)c2ccc(Nc3nc(N)c(C(=O)c4c(F)cccc4F)s3)cc2)s1 [A(29)]	0.56 µM
NC(=O)C[S+]([O-])c1ccc(Nc2nc(N)c(C(=O)c3c(Cl)cccc3Cl)s2)cc1 (stereo not drawn) [Z(2)]	> 25 µM

Exercise: Need IC90 of NC(=O)CSc1cccc(Nc2nc(N)c(C(=O)c3c(Cl)cccc3Cl)s2)c1 [Y(3)] , thanks.
Key: > 25 µM

----------
target: CDK4/cyclin D3 (Homo sapiens, UniProt P11802); construct: made in house; host or cells: insect cells (baculovirus co-infection); assay: Inhibition of CDK4/Cyclin D retinoblastoma kinase activity; assay type: biochemical; conditions: test compound at 1 μM (head line shifted: 'mM' printed beside 'Structure'); read-out: % Inhib CDK4/D @ 1 μM;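 also: relative to DMSO control wells without compound minus no-enzyme background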
Sequence (P11802 whole entry): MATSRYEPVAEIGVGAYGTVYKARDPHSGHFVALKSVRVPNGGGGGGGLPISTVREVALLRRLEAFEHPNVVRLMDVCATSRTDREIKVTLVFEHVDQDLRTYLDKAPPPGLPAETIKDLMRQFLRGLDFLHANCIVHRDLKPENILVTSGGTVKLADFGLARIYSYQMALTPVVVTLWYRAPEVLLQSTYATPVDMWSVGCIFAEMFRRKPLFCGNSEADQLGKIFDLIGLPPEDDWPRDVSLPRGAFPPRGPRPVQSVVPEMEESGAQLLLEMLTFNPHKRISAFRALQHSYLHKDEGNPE
Sequence (P30281 1-264 partner limits assumed): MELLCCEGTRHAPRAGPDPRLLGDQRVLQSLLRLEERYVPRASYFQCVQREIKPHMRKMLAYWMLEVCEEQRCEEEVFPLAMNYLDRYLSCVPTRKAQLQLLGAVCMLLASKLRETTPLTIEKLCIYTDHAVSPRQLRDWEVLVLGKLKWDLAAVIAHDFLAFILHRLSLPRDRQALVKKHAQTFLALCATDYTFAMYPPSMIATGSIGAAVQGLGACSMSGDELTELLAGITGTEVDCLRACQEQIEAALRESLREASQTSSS
Result type: inhibition at 1 µM (%)

CC(C)CC[S+]([O-])c1ccc(Nc2nc(N)c(C(=O)c3c(Cl)cccc3Cl)s2)cc1 (stereo not drawn)	43
C=CCC[S+]([O-])c1cccc(Nc2nc(N)c(C(=O)c3c(Cl)cccc3Cl)s2)c1 (stereo not drawn)	43.1
Nc1nc(Nc2ccc([S+]([O-])CCN3CCOCC3)cc2)sc1C(=O)c1c(Cl)cccc1Cl (stereo not drawn)	58

----------
Target: CDK4/cyclin D3 (Homo sapiens)
Construct: made in house; host or cells: insect cells (baculovirus co-infection)
Test: Inhibition of CDK4/Cyclin D retinoblastoma kinase activity
Type: biochemical
Conditions: test compound at 1 μM (head line shifted: 'mM' printed beside 'Structure'); read-out: % Inhib CDK4/D @ 1 μM
Protocol: Cyclin-dependent kinase activity was measured by quantifying the enzyme-catalyzed, time-dependent incorporation of radioactive phosphate from [^32P]ATP or [^33P]ATP into a protein substrate. […] The phosphorylated substrate was then captured on a nitrocellulose or phosphocellulose membrane using a 96-well filtration manifold, and unincorporated radioactivity was removed by repeated washing with 0.85% phosphoric acid. Radioactivity was quantified by exposing the dried membranes to a phosphorimager. […]
Result type: inhibition at 1 µM (%)

[P] CC(C)OC(=O)C[S+]([O-])c1ccc(Nc2nc(N)c(C(=O)c3c(Cl)cccc3Cl)s2)cc1 (stereo not drawn) [DD(103)]
[Q] Nc1nc(Nc2ccc(S(=O)(=O)CC3CCCO3)cc2)sc1C(=O)c1c(Cl)cccc1Cl (stereo not drawn) [DD(178)]
Exercise: Lab notebook, comparison: P versus Q , higher inhibition at 1 µM goes to which? Use the label to indicate which entry you chose.
Key: P

[I] Nc1nc(Nc2ccc([S+]([O-])CC3CNC(=O)O3)cc2)sc1C(=O)c1c(Cl)cccc1Cl (stereo not drawn) [DD(89)]
[II] CC(C)CCCSc1cccc(Nc2nc(N)c(C(=O)c3c(Cl)cccc3Cl)s2)c1 [DD(70)]
Exercise: Of I and II , whose reported inhibition at 1 µM is numerically smaller? Use the label to indicate which entry you chose.
Key: II
(II: 5.3%, I: 61.7%)

[a] Nc1nc(Nc2cccc([S+]([O-])CCN3CCCCC3)c2)sc1C(=O)c1c(Cl)cccc1Cl (stereo not drawn) [DD(131)]
[b] CC(C)OC(=O)C[S+]([O-])c1cccc(Nc2nc(N)c(C(=O)c3c(Cl)cccc3Cl)s2)c1 (stereo not drawn) [DD(143)]
[c] CCN(CC)C(=O)CS(=O)(=O)c1ccc(Nc2nc(N)c(C(=O)c3c(Cl)cccc3Cl)s2)cc1 [DD(161)]
Exercise: Please give the order of these molecules when sorted by inhibition at 1 µM, largest value leading. # output: labels, in the requested order
Key: a, b, c

Source listed as patent US20040176431A1.
